# System: COLO 205 colon
# protocol description: NCI tumour cell line growth inhibition, 48 h; in the data active = GI50 below about 0.43 µM; inactive = the rest
Assign a class; possible classes are active, inactive

// return assay outcome for O=C(CI)NC1Oc2ccccc2-c2oc(=O)c(-c3ccccc3)cc21 (stereo unspecified)
inactive

// return assay outcome for CC[CH2][Pb]([CH2]CC)([CH2]CC)[O]C(=O)C(F)(F)F
active

// return assay outcome for Nc1ccn(C2O[C@H](CO)[C@@H](O)[C@@H]2O)c(=O)n1 (stereo partly specified)
inactive

// return assay outcome for COc1ccc2[nH]c(O)c(/C=c3/cc4c(c(-c5cc(OC)c(OC)c(OC)c5)n3)=Nc3ccccc3-4)c2c1
inactive

// return assay outcome for N#Cc1ccc(C#Cc2ccccc2C#CCCCCO)cc1
inactive

// return assay outcome for O=C(c1ccco1)c1nc2ccc(C(F)(F)F)cc2[n+]([O-])c1C(F)(F)F
inactive

// return assay outcome for COC(=O)CCCCN=Cc1c(O)c(O)c(C(C)C)c2cc(C)c(-c3c(C)cc4c(C(C)C)c(O)c(O)c(C=NCCCCC(=O)OC)c4c3O)c(O)c12
inactive

// return assay outcome for COc1ccc(C2=NN(C(=O)c3cc(OC)c(OC)c(OC)c3)C(c3ccc(C#N)cc3)C2)cc1OC (stereo unspecified)
inactive

// return assay outcome for CCCCC(=O)OCC1OC(n2cnc3c(=S)nc[nH]c32)C(OC(=O)CCCC)C1OC(=O)CCCC (stereo unspecified)
inactive

// return assay outcome for CCc1c(Oc2ccc(C(C)=O)cc2)c2ccccc2[nH]c1=O
inactive

// return assay outcome for CCOC(=O)/C=C(/C(=O)OCC)n1cc(Cl)c(=O)n(CC(=O)OCC)c1=O
inactive

// return assay outcome for O=C1c2c(c3c4ccccc4n(CCCCCCBr)c3c3[nH]c4ccccc4c23)C(=O)N1O
inactive

// return assay outcome for N#C/C(=C1C=C/C(=N/O)C(Br)=C/1)c1ccccc1
inactive

// return assay outcome for CC(C)CC(=O)[O-].CC(C)CC(=O)[O-].N.N.N.N.[Co+3].[O-][Cl+3]([O-])([O-])[O-]
inactive

// return assay outcome for CSc1ccc(C2=NN(C(C)=O)C(c3cc(C)cs3)C2)cc1 (stereo unspecified)
inactive

// return assay outcome for COc1cc2c3c(n(C)c(=O)c2cc1OC)-c1cc2c(cc1/C3=C\CCCN1C(=O)c3ccccc3C1=O)OCO2
inactive

###

# Tested on: UACC-62 melanoma
# protocol description: NCI tumour cell line growth inhibition, 48 h
endpoint label: TGI

Look up UACC-62 melanoma data: TGI of COc1cc2c(cc1OC)C1=Cc3cc(OC)c(OC)cc3C(C)N1C=C2 (stereo not drawn) , then report it.
> 100 µM

Look up UACC-62 melanoma data: TGI of O=C(N/N=C/c1ccccc1O)c1cccc([N+](=O)[O-])c1 , then report it.
> 70.8 µM

Look up UACC-62 melanoma data: TGI of O=C1CCC[C@@H]2NC[C@@H](c3ccc4c(c3)OCO4)[C@H]12 , then report it.
> 25 µM

Look up UACC-62 melanoma data: TGI of Cc1nc2cccc([N+](=O)[O-])c2c(NCCCN(C)C)c1C , then report it.
> 100 µM

Look up UACC-62 melanoma data: TGI of CN(CCC#N)c1ccc(/C=C2\SC(=S)NC2=O)cc1 , then report it.
47.3 µM

Look up UACC-62 melanoma data: TGI of CC1=C2C(=O)NN=C2CCN1c1ccc(Br)cc1 , then report it.
> 100 µM

Look up UACC-62 melanoma data: TGI of N#C/C(=C/c1ccsc1)C(=O)c1ccccc1 , then report it.
> 100 µM

Look up UACC-62 melanoma data: TGI of OCc1ccc2[n+](c1)CCC1c3ccccc3NC21 (stereo not drawn) , then report it.
> 300 µM

Look up UACC-62 melanoma data: TGI of N=C1CSC2=NC3=C(CCC/C3=C\c3ccccc3)C(c3ccccc3)N12 (stereo not drawn) , then report it.
23 µM

Look up UACC-62 melanoma data: TGI of CCN(CC)c1c(C(=O)/C=C/c2ccccc2)c(-c2ccccc2)nn(C)c1=O , then report it.
> 100 µM

Look up UACC-62 melanoma data: TGI of CN(C(=O)C12C3C4C1C1C2C3C41C(=O)C(C)(C)C)C(C)(C)C (stereo not drawn) , then report it.
> 100 µM

Look up UACC-62 melanoma data: TGI of NC(C(F)(F)F)(C(F)(F)F)P(=O)(Cc1ccccc1)Cc1ccccc1 , then report it.
> 100 µM

Look up UACC-62 melanoma data: TGI of CC(C)=CCOC(=O)C(C)=[N+]=[N-] , then report it.
> 100 µM

Look up UACC-62 melanoma data: TGI of CCOc1ccc2c(c1)[n+]([O-])c(S(=O)(=O)c1ccc(C)cc1)c(N)[n+]2[O-] , then report it.
> 100 µM

Look up UACC-62 melanoma data: TGI of S=C(N/N=C\C=N/NC(=S)N1CCCCC1)N1CCCCC1 , then report it.
> 100 µM

Look up UACC-62 melanoma data: TGI of CCOC(=O)CNC(=O)C(CSCc1ccc(Br)cc1)NC(=O)CCC(N)C(=O)OCC (stereo not drawn) , then report it.
> 50 µM

Look up UACC-62 melanoma data: TGI of CN(C)CCNc1cc(-c2ccccc2)nc2ccccc12 , then report it.
30 µM

Look up UACC-62 melanoma data: TGI of O=C1c2cccc(NCCN=Cc3cc(O)ccc3O)c2C(=O)c2c(NCCN=Cc3cc(O)ccc3O)cccc21 , then report it.
3.57 µM

Look up UACC-62 melanoma data: TGI of CC[CH2][Pb]([CH2]CC)([CH2]CC)[O]C(=O)C(F)(F)F , then report it.
0.3 µM

Look up UACC-62 melanoma data: TGI of COC(=O)C1=C(C(=O)OC)C2C=CC1C1C(Cl)=C(Cl)C21 (stereo not drawn) , then report it.
> 100 µM

Look up UACC-62 melanoma data: TGI of Nc1ccn(C2O[C@H](CO)[C@@H](O)[C@@H]2O)c(=O)n1 (stereo partly drawn) , then report it.
> 100 µM

Look up UACC-62 melanoma data: TGI of Cc1cc(N(CCOS(C)(=O)=O)CCOS(C)(=O)=O)ccc1C=Nc1ccc(-c2nc(Cc3ccccc3)sc2C)cc1 , then report it.
16.7 µM

Look up UACC-62 melanoma data: TGI of Cc1c(C(=O)N/N=C/c2ccc(Cl)cc2)nnn1-c1ccnc2c(C(F)(F)F)cccc12 , then report it.
28.4 µM

Look up UACC-62 melanoma data: TGI of CC1(Cl)C(=O)NC(=O)N(C2CC(N=[N+]=[N-])C(CO)O2)C1N=[N+]=[N-] (stereo not drawn) , then report it.
> 100 µM

Look up UACC-62 melanoma data: TGI of O=C(CN1CCOCC1)Nc1ccc(Cn2nnc3c2C(=O)c2nnn(Cc4ccc(NC(=O)CN5CCOCC5)cc4)c2C3=O)cc1 , then report it.
1.83 µM

Look up UACC-62 melanoma data: TGI of O=C(CC(=O)n1nc(-c2ccccc2)c(N=Nc2ccccc2C(=O)O)c1-c1ccccc1)Nc1ccc(Cl)cc1 , then report it.
> 100 µM

Look up UACC-62 melanoma data: TGI of C#CCCCCC#Cc1ccccc1C(=O)OC , then report it.
94.7 µM

Look up UACC-62 melanoma data: TGI of O=C(O)c1c2c(cc3c1CC1(Cc4ccccc4C1)C3)CCC2 , then report it.
> 100 µM

Look up UACC-62 melanoma data: TGI of CNC(=O)OCc1c(COC(=O)NC)c(-c2ccc(Cl)c(Cl)c2)n2c1SCC2 , then report it.
8.94 µM

Look up UACC-62 melanoma data: TGI of COc1ccccc1Nc1nc(N)nc(N)c1N=O , then report it.
> 100 µM

Look up UACC-62 melanoma data: TGI of Cc1nc(-c2ccc([N+](=O)[O-])cc2)cn2c1nc1ccccc12 , then report it.
53.8 µM

Look up UACC-62 melanoma data: TGI of N#C/C(=C1C=C/C(=N/O)C(Br)=C/1)c1ccccc1 , then report it.
16 µM

Look up UACC-62 melanoma data: TGI of O=C(O)CSc1nnc(COc2ccc(Cl)cc2)n1-c1ccccc1 , then report it.
> 100 µM

Look up UACC-62 melanoma data: TGI of O=C(Nc1ccc(N2CCNCC2)cc1)c1[nH]ncc1Nc1cc(Oc2ccccc2)ncn1 , then report it.
4.96 µM

Look up UACC-62 melanoma data: TGI of COc1cc(C2c3cc4c(cc3C(NCC(O)CO)C3COC(=O)[C@H]23)OCO4)cc(OC)c1OC (stereo partly drawn) , then report it.
> 100 µM

Look up UACC-62 melanoma data: TGI of CN1CCN(Cc2ccc(NC(=O)c3cncc(C#Cc4cnc(N)c5ccc(C#N)cc45)c3)cc2C(F)(F)F)CC1 , then report it.
0.422 µM

Look up UACC-62 melanoma data: TGI of CC1(O)CC(C(F)(F)F)(C(F)(F)F)OC1=O (stereo not drawn) , then report it.
> 10 µM

Look up UACC-62 melanoma data: TGI of CN(C)CCC(=O)N1C/C(=C/c2ccccc2)C(=O)/C(=C\c2ccccc2)C1 , then report it.
3.77 µM

Every entry's value here was drawn from PubChem BioAssay (NCI).
